Data credit: patent US10111881B2

Listing of entries alongside the reported pIC50.
System: MARV
ASSAY_NOTES: microbe, parasite or virus in culture
Type: cell-based, Marburgvirus (Musoke strain)
APPLIED_CONDITIONS: read-out: MARV HeLa IC50
Just so you know, pIC50 here is -log10 of the concentration in molar units; reply with that number alone.

> print(dat)
                      compound.string  study.system  measured.quantity  value.observed
1  N#Cc1c(NCCN)nc(-c2ccccc2)c2c1CCCC2          MARV              pIC50            5.21

(Q) Quickly give me recorded pIC50 for CC(C)(C)c1nc2ccccc2c2nnc(SCC(=O)Nc3nccs3)n12
(A) 5.20

(Q) Respond only with pIC50 recorded for Cc1nn2c(NCCCN(C)C)c3c(nc2c1-c1ccccc1)CCCC3
(A) 4.90

(Q) Given CC(C)(CS(=O)(=O)[O-])NC(=O)CC[N+](C)(C)CCO , respond with its pIC50.
(A) 5.19

(Q) Quickly give me recorded pIC50 for CC(C)N1CCN(C(=O)c2ccc(OC3CCN(CCc4ccccc4)CC3)cc2)CC1
(A) 4.89

(Q) Identify measured pIC50 corresponding to C=C(c1ccc(O)cc1)c1ccc(O)cc1
(A) 5.21

(Q) Look up pIC50 of Cc1cc(N2CCN(C)CC2)nc2ccc(NC(=S)NCCCN3CCc4ccccc4C3)cc12 and report it.
(A) 5.72
